system: T1, mouse folate receptor alpha (mFRα), recombinant protein (mouse, UniProt P35846 25-232)
T1 construct: Bought recombinant proteins (e.g. biotinylated, Acro Biosystems FO1-M82E9); also called mFOLR1; Ms FOLR1
T1 sequence (P35846 25-232 limits assumed): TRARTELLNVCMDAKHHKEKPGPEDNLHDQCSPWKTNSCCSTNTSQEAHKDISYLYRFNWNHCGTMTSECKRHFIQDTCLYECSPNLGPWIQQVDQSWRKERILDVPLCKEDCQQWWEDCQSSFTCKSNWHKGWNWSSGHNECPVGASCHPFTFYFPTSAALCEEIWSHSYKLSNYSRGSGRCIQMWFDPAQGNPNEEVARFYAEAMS
testDescription: BLI, purified VHH
reportedEndpoint: koff (s⁻¹)

Completed entries (count: 3):
P01500006: 2HF042(Q1E, Q5V, A14P, V40A, L79Y, K83R, Q108L)-FLAG3-HIS6 (VHH, Entry includes the tags; also called P0150006) VHH: EVQLVESGGGLVQPGGSLRLSCAASGSGFSGMIMGWYRQAPGKQRELVATVTSHGTTNYADSVKGRFTISRDNAKNTVYLQMNSLRPEDTAVYYCNAHFPGIYWGKGTLVTVSS	0.00174
P01500059: P01500001(G26E, D72E)-FLAG3-HIS6 (VHH, also called P0150059) VHH: EVQLVESGGGLVQPGGSLRLSCAASESGFSGMIMGWYRQAPGKQRELVATVTSHGTTNYADSVKGRFTISRENAKNTVYLQMNSLRPEDTAVYYCNAHFPGIYWGKGTLVTVSS	0.000333
P01500047: P01500001(G26E, G28T, S30I, I33L)-FLAG3-HIS6 (VHH, also called P0150047) VHH: EVQLVESGGGLVQPGGSLRLSCAASESTFIGMLMGWYRQAPGKQRELVATVTSHGTTNYADSVKGRFTISRDNAKNTVYLQMNSLRPEDTAVYYCNAHFPGIYWGKGTLVTVSS	0.000219

P: P01500044: P01500001(S30I, D72E, N73G)-FLAG3-HIS6 (VHH, also called P0150044) VHH: EVQLVESGGGLVQPGGSLRLSCAASGSGFIGMIMGWYRQAPGKQRELVATVTSHGTTNYADSVKGRFTISREGAKNTVYLQMNSLRPEDTAVYYCNAHFPGIYWGKGTLVTVSS
Q: P01500042: P01500001(G28T, S30I)-FLAG3-HIS6 (VHH, also called P0150042) VHH: EVQLVESGGGLVQPGGSLRLSCAASGSTFIGMIMGWYRQAPGKQRELVATVTSHGTTNYADSVKGRFTISRDNAKNTVYLQMNSLRPEDTAVYYCNAHFPGIYWGKGTLVTVSS
**Query** Hi there! Just curious which has the higher koff between P and Q . I would appreciate it if you answered with the label of your choice.
**Result** Q
